Biological target: UniProt P06401
Sequence (P06401 whole entry): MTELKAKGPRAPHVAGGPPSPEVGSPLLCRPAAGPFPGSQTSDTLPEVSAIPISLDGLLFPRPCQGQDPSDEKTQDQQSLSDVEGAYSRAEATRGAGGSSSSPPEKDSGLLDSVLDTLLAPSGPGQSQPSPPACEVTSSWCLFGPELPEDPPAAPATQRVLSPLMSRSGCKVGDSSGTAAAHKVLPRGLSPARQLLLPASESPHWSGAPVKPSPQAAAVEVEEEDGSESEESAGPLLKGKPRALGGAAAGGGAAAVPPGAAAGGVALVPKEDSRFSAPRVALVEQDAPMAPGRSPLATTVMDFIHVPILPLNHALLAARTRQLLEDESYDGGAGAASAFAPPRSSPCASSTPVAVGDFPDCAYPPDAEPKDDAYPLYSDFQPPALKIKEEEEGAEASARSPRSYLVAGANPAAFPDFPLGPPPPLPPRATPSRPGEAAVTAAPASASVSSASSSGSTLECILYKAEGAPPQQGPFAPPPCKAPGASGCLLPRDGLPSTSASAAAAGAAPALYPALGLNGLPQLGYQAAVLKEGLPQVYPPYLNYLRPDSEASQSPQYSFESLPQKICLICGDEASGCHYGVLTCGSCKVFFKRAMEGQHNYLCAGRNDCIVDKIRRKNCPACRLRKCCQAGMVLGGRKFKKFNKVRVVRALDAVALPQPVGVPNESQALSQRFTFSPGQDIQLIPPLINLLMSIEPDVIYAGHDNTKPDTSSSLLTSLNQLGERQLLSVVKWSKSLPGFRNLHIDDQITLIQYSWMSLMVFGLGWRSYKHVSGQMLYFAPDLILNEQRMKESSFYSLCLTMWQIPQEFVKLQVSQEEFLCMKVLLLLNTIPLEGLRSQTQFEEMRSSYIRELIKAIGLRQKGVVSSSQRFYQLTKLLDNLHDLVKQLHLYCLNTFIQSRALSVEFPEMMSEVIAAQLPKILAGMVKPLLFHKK
Assay type: functional
Where a SMILES comes first, the peptide text is derived from it.
Readout name: AC50

Past entries and their recorded results:
Molecule	Test target	AC50
CC(C)/N=c1\cc2n(-c3ccc(Cl)cc3)c3ccccc3nc-2cc1Nc1ccc(Cl)cc1 [CLOFAZIMINE]	UniProt P06401	> 30 µM
C[C@@H](O)[C@H]1C(=O)N2C(C(=O)O)=C(SCCN=CN)C[C@H]12 [IMIPENEM ANHYDROUS]	UniProt P06401	> 300 µM
CCC(=O)O[C@H](CC(=O)O)C[N+](C)(C)C [LEVOCARNITINE PROPIONATE]	UniProt P06401	> 30 µM
COc1ccc(-n2nc(C(N)=O)c3c2C(=O)N(c2ccc(N4CCCCC4=O)cc2)CC3)cc1 [APIXABAN]	UniProt P06401	> 30 µM
CS(=O)(=O)Nc1ccc([N+](=O)[O-])cc1Oc1ccccc1 [NIMESULIDE]	UniProt P06401	> 30 µM

Print UniProt P06401 AC50 for C[C@H](N)C(=O)N[C@@H](CCC(N)=O)C(=O)O [ALANYL GLUTAMINE] (H-Ala-Gln-OH) .
> 30 µM

----------
biological target: D(1A) dopamine receptor (Homo sapiens); assay type: functional, cell-based; note: assay procedure not described here
Sequence (P21728 whole entry): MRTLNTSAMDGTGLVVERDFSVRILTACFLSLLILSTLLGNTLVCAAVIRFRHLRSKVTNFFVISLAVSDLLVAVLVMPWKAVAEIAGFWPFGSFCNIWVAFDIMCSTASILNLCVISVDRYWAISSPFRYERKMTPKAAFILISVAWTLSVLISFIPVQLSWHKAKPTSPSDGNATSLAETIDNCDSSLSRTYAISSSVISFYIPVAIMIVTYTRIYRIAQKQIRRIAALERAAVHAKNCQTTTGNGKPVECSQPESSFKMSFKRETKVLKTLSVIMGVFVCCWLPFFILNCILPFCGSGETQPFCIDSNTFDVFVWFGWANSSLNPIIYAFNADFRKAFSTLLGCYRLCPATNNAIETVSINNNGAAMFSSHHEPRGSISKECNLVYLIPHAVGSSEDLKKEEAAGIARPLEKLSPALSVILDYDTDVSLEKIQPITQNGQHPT
molecules and their reported AC50

Item NCC1(CC(=O)O)CCCCC1 : provide AC50
> 30 µM

Item COc1cc2c(cc1OC)C1CC(=O)C(CC(C)C)CN1CC2 (stereo not given) : provide AC50
> 30 µM

Item C[C@@H](O)[C@H]1C(=O)N2C(C(=O)O)=C(SCCN=CN)C[C@H]12 [IMIPENEM ANHYDROUS] : provide AC50
> 300 µM

Item Nc1c2c(nc3ccccc13)CCCC2O (stereo not given) : provide AC50
> 30 µM

Item c1cnc2cc3c(cc2n1)[C@@H]1CNC[C@H]3C1 : provide AC50
> 30 µM
